Assignment: determine reported Kd for the given binders.
Test system: T1, recombinant C-terminal ApoE fragment G200-HIS (ApoE-G200-H299-10xHIS) (human, UniProt P02649 218-317)
T1 construct: also called G200-HIS fragment
T1 sequence (P02649 other isoform, or with tags, fused parts or gaps limits assumed): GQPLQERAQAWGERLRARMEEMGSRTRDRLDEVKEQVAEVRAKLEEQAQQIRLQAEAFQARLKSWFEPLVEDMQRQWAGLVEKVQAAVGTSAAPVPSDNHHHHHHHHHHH
Method summary: SPR (Biacore 8K), G200-HIS amine-coupled on CM5, antibody as analyte, bivalent analyte fit (KD1)
Field format: number, assumed nM, no unit text.

Exam item: Specify reported Kd for the binder shown: 23D5, recombinant IgG2c antibody (antibody, V domains shown) VH: EVQLVESGGGLVKPGGSLKLSCSASGFTFSRYAMSWVRQSPEKRLEWVAEINSGGSYSFYSDTVTGRFTISRDNAKNTLFLEMSSLRSEDTAIYYCARQLSGTDYYGTDYWGQGTSVTVSS VL: DVLMTQTPLSLPVSHGDQASISCRSSQSLLYSNGNTYLEWYLQKPGQSPKLLIYKVSNRFSGVPDRFSGSGSGTDFTLKISRVEAEDLGVYYCFQGSHVPYTFGGGTKLEIK
Marked response: 299

Exam item: Specify reported Kd for the binder shown: 7B10, recombinant IgG2c antibody (antibody, V domains shown, also called 7610) VH: AVQLVESGGGLVKPGRSLKLSCAASGFTFSSYAMSWVRQFPDKRLDWVAEISSGGGSTNYLDTVTGRFTISRDNAKNTLYLEMNSLRSEDTAMYYCARQLVGTDYYGTDYWGQGTSVTVSS VL: DVLMTQTPLSLPVSLGDQASISCRSSQNIVYSNGNTYLEWYLQKPGQSPKLLIYKVSNRFSGVPDRFSGSGSGTDFTLKISRVEAEDLGVYYCFQGSHVPYTFGGGTKLEIK
Marked response: 330

Exam item: Specify reported Kd for the binder shown: 7C7, recombinant IgG2c antibody (antibody, V domains shown) VH: EVQLVESGGGLVKPGGSLRLSCAASGFTFSSFAMSWVRQSPERRLEWVAEISRGGGYAFYSDTVTGRFTISRDNARNTLFLEMGSLRSEDTAMYYCSRQLTGTDYYAMDYWGQGTSVTVSS VL: DVLLTQTPLSLFVSLGDQASISCRSSQSIVYTNGNTYLEWYLQKPGQSPKLLIYKVSNRFSGVPDRFSGSGSGTDFTLKISRVEAEDLGVYYCFQGSQVPYTFGGGTKLELK
Marked response: 417

Exam item: Specify reported Kd for the binder shown: 28F2, recombinant IgG2c antibody (antibody, V domains shown) VH: QIQLVQSGPDLKKPGETVKISCKASGYTFTNYAMHWMKQAPGKALKWMGWINTYTGEPTFADDFKGRFAFSLETSASTAYLQINSLKNEDMATYFCAREGYYDRSHYFDYWGQGTTLTVSS VL: DVLMTQTPLSLPVSLGDQASISCRSSLSLVHGDGNTYLEWYLQKPGQSPKLLIYKVSNRFSGVPDRFSGSGSGTDFTLKISRVEAEDLGVYYCLQGSHIPFTFGSGTKLEIK
Marked response: 9830

Exam item: Specify reported Kd for the binder shown: 17G4, recombinant IgG2c antibody (antibody, V domains shown) VH: EVQLVESGGGLVKPGGSLKLSCSASGFTFSRYAMSWVRQSPEKRLEWVAEINSGGSYSFYSDTVTGRFTISRDNAKNTLFLEMSSLRSEDTAIYYCARQLTGTDYYGTDYWGQGTSVTVSS VL: DVLMTQTPLSLPVSHGDQASISCRSSQSLLYSNGNTYLEWYLQKPGQSPKLLIYKVSNRFSGVPDRFSGSGSGTDFTLKISRVEAEDLGVYYCFQGSHVPYTFGGGTKLEIK
Marked response: 141

# credit: patent US20220242939A1
